experiment: yeast display, Sf9 membrane polyspecificity reagent, FACS + sequencing; frameworks hold sequencing errors
assayReadout: polyreactivity (PSR sort gate)

sequenceRecord	assayReadout	observed
QVQLVESGGGLVQAGGSLRLICAASGYIFRDYAMGWYRQAPGKERELVATISSGGSTSYADSVKGRFTISRDNAKNTVYLQMNSLKPEDTAVYYCAADVANTSAEYYYWGQGTQVTVSS	polyreactivity (PSR sort gate)	low polyreactivity
QVQLGESGGCLVQAGGSLRLSCAASGSPFYTYAMGWYRQAPGKERELVAASSFGGGSTYADSVKGRFTISRDNAKNTLYLQMNSLKPDDTAGYYCNTDLYLYGWYPREVQQYAGGDYWGQGTQVTVSS	polyreactivity (PSR sort gate)	low polyreactivity

---

experiment: yeast display, Sf9 membrane polyspecificity reagent, FACS + sequencing; frameworks hold sequencing errors
assayReadout: polyreactivity (PSR sort gate)

sequenceRecord	observed
QVQLVESGGGLVQAGGSLRLSCAASGGTSIPYAMGWYRQAPGKERELVAAITRSGGRTYYADSVKGRFTISRDNAKNTVYLQMNSLKPEDTAVYYCAAAYYRWGYTVTVIKQFGYWGQGTQVTVSS	high polyreactivity
QVQLVESGGGLVQAGGSLRLSCAASGFIFYRNTMGWSRQAPGKEREFVAAIRWRGGSTYYADSVKGRFTISRDNAKNTVYLQMNSLKPEDTAVYYCAADTRPGYSGFEYWGQGTQVTVSS	high polyreactivity
QVQLVESGGGLVQAVGILRLSCASYGRTFVANAMGWYIQAPGKERELVAGITCGDSTYYADSVKWRFTISRDNAKNTVYLQMNRLKPEDTAVYYCSAPYNFWNFFDLIYVWDGYDYWGQGTQVTVSS	low polyreactivity
QVQLVESGGGLVQAGGSLRLSCAASGSTFFRYAMGWYRQAPGKEREFVAAITSSGGNTYYADSVKGRFTISRDNAKNTVYLQMNSLKPEDTAVYYCAAVWYSPYVKYNYWGQGTQVTVSS	low polyreactivity
QVQLVESGGGLVQAGGSLRLSCAASGGIFHYYAMGWYRQAPGKERELVAAISWNTGSTYYADSVKGRFTISRDNAKNTVYLQINSLKPEDTAVYYCAASSRRSYLPEGQGEYWGQGTQVTVSS	high polyreactivity

Inquiry: Could you tell me which polyreactivity (PSR sort gate) is on file for "QVQLVESGGGLVQAGGSLRLSCAASGSTRYYAMGWYRHAPGKERELVASITTIGGSTSYADSVKGRFTISRDNAKNTVYLQMNSLKPEDTAVYYCATRSLVYSARAAGLIQFDHWGQGTQVNVSS" ?
Reply text: low polyreactivity

Inquiry: Could you tell me which polyreactivity (PSR sort gate) is on file for "QVQLVESGGGLVQAGGSLRLSCAASGRIFGGYAMGWYRQAPGKERELVAAITFRSGTTYYADSVKGRFTISRDNAKNTVYLQMNSLKPEDTAVYYCAARWGPYAFTYVRTYDYWGQGTQVTVSS" ?
Reply text: low polyreactivity

Inquiry: Could you tell me which polyreactivity (PSR sort gate) is on file for "QVQLVESGGGLVQAGGSLRLSCAASGRILYPYAMGGYRQAPGKERELVAAITFIGGSTYYADSVKGRFTISRDNAKNTVYLQMNSLKPEDTAVYYCNAKPHRPSLLRWRIGNYWGQGTQVTVSS" ?
Reply text: high polyreactivity

Inquiry: Could you tell me which polyreactivity (PSR sort gate) is on file for "QDQLVESGGGLVQAGGSLRLSCAASGITFRYYAKGWYRPSPGKERELLAAISTSGGNTYYADSVKGRLTISRDNAKNTVYLQMKSLKPEDTAVYYCDVDGEYWYEYDGDYWGQGTQVNVSS" ?
Reply text: low polyreactivity

Provenance of the data: the nanobody polyreactivity screen of Harvey et al. (2022)
